// reported IC50 per item
Measured Target: UniProtKB Q9NYK1
Sequence (Q9NYK1 27-1049): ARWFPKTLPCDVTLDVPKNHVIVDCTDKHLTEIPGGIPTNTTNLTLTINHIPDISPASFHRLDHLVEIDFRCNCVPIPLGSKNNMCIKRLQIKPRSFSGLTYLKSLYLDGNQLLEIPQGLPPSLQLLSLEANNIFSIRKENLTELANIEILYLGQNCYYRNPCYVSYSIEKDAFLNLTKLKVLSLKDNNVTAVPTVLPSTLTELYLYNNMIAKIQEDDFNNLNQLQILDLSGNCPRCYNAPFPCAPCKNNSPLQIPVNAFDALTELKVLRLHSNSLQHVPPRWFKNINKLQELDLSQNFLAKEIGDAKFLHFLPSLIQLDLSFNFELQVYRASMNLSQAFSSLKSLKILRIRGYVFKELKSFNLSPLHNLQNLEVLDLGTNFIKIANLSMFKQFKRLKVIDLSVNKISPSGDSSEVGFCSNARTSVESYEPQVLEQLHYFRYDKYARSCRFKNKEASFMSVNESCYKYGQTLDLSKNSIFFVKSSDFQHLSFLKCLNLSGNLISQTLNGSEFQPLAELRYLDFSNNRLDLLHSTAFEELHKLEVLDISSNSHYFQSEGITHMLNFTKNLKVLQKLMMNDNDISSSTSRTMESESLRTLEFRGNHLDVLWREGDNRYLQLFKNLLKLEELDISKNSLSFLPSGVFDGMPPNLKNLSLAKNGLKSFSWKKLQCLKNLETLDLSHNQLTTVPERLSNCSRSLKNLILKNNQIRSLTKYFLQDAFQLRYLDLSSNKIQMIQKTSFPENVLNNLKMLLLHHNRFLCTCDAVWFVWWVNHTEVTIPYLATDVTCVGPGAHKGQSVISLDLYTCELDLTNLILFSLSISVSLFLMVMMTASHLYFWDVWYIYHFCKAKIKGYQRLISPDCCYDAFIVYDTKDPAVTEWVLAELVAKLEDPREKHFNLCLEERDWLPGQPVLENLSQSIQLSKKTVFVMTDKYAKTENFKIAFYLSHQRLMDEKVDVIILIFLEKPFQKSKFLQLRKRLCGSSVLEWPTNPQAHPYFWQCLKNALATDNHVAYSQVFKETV
Method Description: TLR7 inhibition reporter assay (HEK-Blue cells, SEAP reporter, gardiquimod stimulation)
Conditions Used: HEK-Blue cells overexpressing human TLR7, SEAP reporter, gardiquimod 7.5 μM

Chemical Structure	Property	Readout Value
CC(C)c1c(-c2coc3cccnc23)[nH]c2ccc(C3CCNCC3)cc12	IC50	> 3130 nM
Cc1ccnc2[nH]cc(-c3[nH]c4ccc(C5CCNCC5)cc4c3C(C)C)c12	IC50	< 100 nM
CC(C)c1c(-c2cnc3ncccn23)[nH]c2ccc(C3CCN(CC(=O)N(C)C)CC3)cc12	IC50	100 to 1000 nM

Enquiry: Name the reported IC50 value associated with the compound `Cc1cc(-c2[nH]c3ccc(C4CCN(C(=O)[C@@H]5C[C@@H](O)CN5)CC4)cc3c2C(C)C)cc2nccn12`
Return: 1000 to 50000 nM

Enquiry: Query (compound): `CC(C)c1c(-c2ccn3nccc3c2)[nH]c2ccc(C3CCN(CC(=O)N(C)C)CC3)cc12` ; field requested: IC50
Return: < 100 nM

Enquiry: Entry `Cc1cc(-c2[nH]c3ccc(C4CCNCC4)cc3c2C(C)C)cn2cc(C(=O)NCC(C)(C)O)nc12` : reported IC50 = ?
Return: 100 to 1000 nM

Enquiry: Suppose we examine the compound `COc1cc(-c2[nH]c3ccc(C4CCN(CC(=O)N(C)C)CC4)cc3c2C(C)C)c2ccccc2n1` ; what IC50 value has been reported?
Return: < 100 nM

Enquiry: # get_value(readout='IC50', item= `CC(C)c1c(-c2ccnc3[nH]ncc23)[nH]c2ccc(C3CCN(CCN)CC3)cc12` )
Return: < 100 nM

* * *

Measured Target: UniProt:Q9NR96
Sequence (Q9NR96 26-1032): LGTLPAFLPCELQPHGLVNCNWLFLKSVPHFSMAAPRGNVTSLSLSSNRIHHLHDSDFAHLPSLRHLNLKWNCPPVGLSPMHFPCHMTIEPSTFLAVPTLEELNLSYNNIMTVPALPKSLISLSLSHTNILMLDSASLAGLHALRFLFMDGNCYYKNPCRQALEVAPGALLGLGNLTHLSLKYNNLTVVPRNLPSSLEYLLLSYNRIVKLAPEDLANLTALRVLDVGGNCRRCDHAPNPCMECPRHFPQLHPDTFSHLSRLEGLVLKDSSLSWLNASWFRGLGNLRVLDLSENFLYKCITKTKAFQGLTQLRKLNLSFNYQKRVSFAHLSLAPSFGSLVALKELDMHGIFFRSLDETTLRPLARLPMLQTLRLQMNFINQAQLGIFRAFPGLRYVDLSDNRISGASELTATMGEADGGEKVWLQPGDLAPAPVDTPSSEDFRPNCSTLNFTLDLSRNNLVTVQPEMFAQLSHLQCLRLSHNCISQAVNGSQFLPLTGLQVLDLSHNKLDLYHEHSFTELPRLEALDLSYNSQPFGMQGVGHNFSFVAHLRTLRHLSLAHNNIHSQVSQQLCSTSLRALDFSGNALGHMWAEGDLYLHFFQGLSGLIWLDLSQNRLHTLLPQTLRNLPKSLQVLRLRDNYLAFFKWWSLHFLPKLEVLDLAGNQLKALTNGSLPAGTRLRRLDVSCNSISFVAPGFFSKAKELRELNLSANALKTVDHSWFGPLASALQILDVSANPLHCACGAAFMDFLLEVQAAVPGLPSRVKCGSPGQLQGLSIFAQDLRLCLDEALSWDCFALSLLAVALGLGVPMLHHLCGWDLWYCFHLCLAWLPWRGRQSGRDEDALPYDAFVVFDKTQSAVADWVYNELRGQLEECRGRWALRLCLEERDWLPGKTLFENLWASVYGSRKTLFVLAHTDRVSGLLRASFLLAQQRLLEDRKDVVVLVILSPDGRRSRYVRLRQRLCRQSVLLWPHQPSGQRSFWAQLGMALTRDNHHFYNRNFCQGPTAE
Method Description: TLR9 inhibition reporter assay (HEK-Blue cells, SEAP reporter, ODN2006 stimulation)
Conditions Used: HEK-Blue cells overexpressing human TLR9, SEAP reporter, ODN2006 5 nM
pIC50: −log10 of the molar value.
Property: pIC50

Compound	pIC50
CC(C)c1c(-c2ccnc3c2ccn3S(C)(=O)=O)[nH]c2ccc(C3CCNCC3)cc12	6.00 to 7.00
COc1cc(-c2[nH]c3ccc(C4CCNCC4)cc3c2C(C)C)cc2nc(C)nn12	4.30 to 6.00
Cc1cc(-c2[nH]c3ccc(C4CCN(C(=O)CN(C)C)CC4)cc3c2C(C)C)cn2nncc12	4.30 to 6.00
CC(C)c1c(-c2ccnc3[nH]ncc23)[nH]c2ccc(C3CCNCC3F)cc12 (centres unmarked) [Example 171]	4.30 to 6.00
Cc1cc(-c2[nH]c3ccc(C4CCN(C(=O)CN(C)C)CC4)cc3c2C(C)C)cc2cncn12	6.00 to 7.00

Enquiry: Fill in the blank: the reported pIC50 of `Cc1cc(-c2[nH]c3ccc(C4CCN(Cc5ccn(C)n5)CC4)cc3c2C(C)C)cn2nnnc12` is ____.
Return: 4.30 to 6.00

Enquiry: For the compound shown here, `CCc1c(-c2ccnc3[nH]ncc23)[nH]c2ccc(C3CCN(C(=O)CN)CC3)cc12` , give the reported pIC50.
Return: 4.30 to 6.00

Enquiry: Consider the compound `Cc1cc(-c2[nH]c3ccc(C4CCN(Cc5ncn(C)n5)CC4)cc3c2C(C)C)cc2cnnn12` and give its measured pIC50.
Return: 4.30 to 6.00

Ref: patent US11739098B2
